Recorded values, source ChEMBL document CHEMBL4011628.

Measured pIC50 by item
- Target desc: Acid ceramidase (Homo sapiens)
- Sequence (Q13510 22-142 limits assumed): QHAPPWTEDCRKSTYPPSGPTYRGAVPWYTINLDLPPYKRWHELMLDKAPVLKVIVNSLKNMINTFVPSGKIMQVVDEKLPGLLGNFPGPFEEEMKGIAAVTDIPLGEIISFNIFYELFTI
- Sequence (Q13510 143-395 limits assumed): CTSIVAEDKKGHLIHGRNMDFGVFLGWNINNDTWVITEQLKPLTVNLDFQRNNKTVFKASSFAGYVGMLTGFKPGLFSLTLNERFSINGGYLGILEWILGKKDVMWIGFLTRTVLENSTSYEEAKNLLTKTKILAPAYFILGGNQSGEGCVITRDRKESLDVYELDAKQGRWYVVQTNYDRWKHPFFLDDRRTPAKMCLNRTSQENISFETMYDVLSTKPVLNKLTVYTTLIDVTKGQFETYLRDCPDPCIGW
- Test protocol: Inhibition of acid ceramidase in human A375 cells using fluorogenic substrate Rbm-14-12 preincubated for 2 hrs followed by substrate addition measured after 3 hrs by fluorogenic assay
- Type: cell-based
pIC50: −log10 of the molar value.

{"Compound": "CCCCCCNC(=O)n1cc(F)c(=O)[nH]c1=O [CARMOFUR]", "pIC50": 6.72}
{"Compound": "O=C(NCc1ccccc1)n1cnc2ccccc21", "pIC50": 5.97}
{"Compound": "Cc1ccc(CNC(=O)n2cnc3ccccc32)cc1", "pIC50": 6.30}
{"Compound": "COc1nc2ccccc2n1C(=O)NCCCCc1ccccc1", "pIC50": 6.01}
{"Compound": "O=C(NCCCCc1ccccc1)n1cnc2ccccc21", "pIC50": 7.12}
